- assayed.system: T1, TNFR1 (Homo sapiens, UniProt P19438)
- T1 chain: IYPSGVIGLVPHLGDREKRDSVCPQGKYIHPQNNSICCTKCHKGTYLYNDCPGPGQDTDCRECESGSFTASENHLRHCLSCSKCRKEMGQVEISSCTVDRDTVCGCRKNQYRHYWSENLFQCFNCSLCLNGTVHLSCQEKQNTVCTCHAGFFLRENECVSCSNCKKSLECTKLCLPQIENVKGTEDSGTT
- procedure.text: yeast display SC50
Catalogue of binders with associated apparent Kd (screen)
recorded.metric: apparent Kd (screen) (nM)

>  <binder>
K68A (designed binder) SMEEEVEKAAKEYEKKKKEAIEKHLEKLKAKDKEAAERFLKELEEAAKEYAKDEAKTMSEEEAKRRAAKYKEKVLLSELSEEEQKEIKEAEEKLVRTILKYVEEAAK

>  <meas.value>
1.05

$$$$
>  <binder>
A35W (designed binder) SMEEEVEKAAKEYEKKKKEAIEKHLEKLKAKDKEWAERFLKELEEAAKEYAKDEAKTMSEEEAKRRAKKYKEKVLLSELSEEEQKEIKEAEEKLVRTILKYVEEAAK

>  <meas.value>
1.86

$$$$
